test system: fresh sheep RBC; assay type: cell-based; settings: red cells of sheep, 1 h
Square brackets hold non-standard residues; d marks the D form. Side chains are listed from the residue outwards. Peptide text beside a SMILES is read from it. * marks the point of attachment. X1 = CC(C)(C)c1cc(C(C)(C)C)c2[nH]c(C(C)(C)C)c(CC(NC(=O)[C@@H](N)CCCNC(=N)N)C(=O)*)c2c1; Trp(2,5,7-tBu3) = CC(C)(C)c1cc(C(C)(C)C)c2[nH]c(C(C)(C)C)c(C[C@H](N)C(=O)O)c2c1; βAla = NCCC(=O)O
Readout label: HD50 Hemolysis (µg/mL)
Form entry: value (µg/mL) — number only.

Sample records with HD50 Hemolysis:
>>> value("CC(C)(C)c1cc(C(C)(C)C)c2[nH]c(C(C)(C)C)c(CC(NC(=O)[C@@H](N)CCCNC(=N)N)C(=O)N[C@@H](CCCNC(=N)N)C(=O)NCCCC[C@H](NC(=O)[C@H](CCCNC(=N)N)NC(=O)C(Cc3c(C(C)(C)C)[nH]c4c(C(C)(C)C)cc(C(C)(C)C)cc34)NC(=O)[C@@H](N)CCCNC(=N)N)C(=O)NCCC(N)=O)c2c1 (some centres unmarked) [Dendrimer 2D-24]")
48
>>> value("N=C(N)NCCC[C@H](NC(=O)[C@@H](N)Cc1c[nH]c2ccccc12)C(=O)NCCCC[C@H](NC(=O)[C@H](CCCNC(=N)N)NC(=O)[C@@H](N)Cc1c[nH]c2ccccc12)C(=O)NCCCC[C@H](NC(=O)[C@H](CCCCNC(=O)[C@H](CCCNC(=N)N)NC(=O)[C@@H](N)Cc1c[nH]c2ccccc12)NC(=O)[C@H](CCCNC(=N)N)NC(=O)[C@@H](N)Cc1c[nH]c2ccccc12)C(=O)NCCC(N)=O [Dendrimer 4D-04, reference compound]")
1563
>>> value("N=C(N)NCCC[C@H](NC(=O)[C@H](Cc1c[nH]c2ccccc12)NC(=O)[C@@H](N)CCCNC(=N)N)C(=O)NCCCC[C@H](NC(=O)[C@H](CCCCNC(=O)[C@H](CCCNC(=N)N)NC(=O)[C@H](Cc1c[nH]c2ccccc12)NC(=O)[C@@H](N)CCCNC(=N)N)NC(=O)[C@H](CCCNC(=N)N)NC(=O)[C@H](Cc1c[nH]c2ccccc12)NC(=O)[C@@H](N)CCCNC(=N)N)C(=O)NCCC(N)=O [Dendrimer 3D-06, reference compound] (H-RWRK([Arg-Trp-Arg])K([Arg-Trp-Arg])[βAla]-NH2)")
2336
>>> value("CC(C)(C)c1cc(C(C)(C)C)c2[nH]c(C(C)(C)C)c(CC(NC(=O)[C@@H](N)CCCNC(=N)N)C(=O)N[C@@H](CCCNC(=N)N)C(=O)NCCCC[C@H](NC(=O)[C@H](CCCCNC(=O)[C@H](CCCNC(=N)N)NC(=O)[C@H](Cc3c[nH]c4ccccc34)NC(=O)[C@@H](N)CCCNC(=N)N)NC(=O)[C@H](CCCNC(=N)N)NC(=O)[C@H](Cc3c[nH]c4ccccc34)NC(=O)[C@@H](N)CCCNC(=N)N)C(=O)NCCC(N)=O)c2c1 (stereo partly drawn) [Dendrimer 3D-16] (H-RWRK([Arg-Trp-Arg])K([Arg-X1])[βAla]-NH2)")
201
>>> value("N=C(N)NCCC[C@H](NC(=O)[C@@H](N)Cc1c[nH]c2ccccc12)C(=O)NCCCC[C@H](NC(=O)[C@H](CCCCNC(=O)[C@H](CCCNC(=N)N)NC(=O)[C@@H](N)Cc1c[nH]c2ccccc12)NC(=O)[C@H](CCCNC(=N)N)NC(=O)[C@@H](N)Cc1c[nH]c2ccccc12)C(=O)NCCC(N)=O [Dendrimer 3D-03, reference compound] (H-WRK([Arg-Trp])K([Arg-Trp])[βAla]-NH2)")
3197

Hi! What's the reported HD50 Hemolysis for N=C(N)NCCC[C@H](NC(=O)[C@H](Cc1c[nH]c2ccccc12)NC(=O)[C@@H](N)CCCNC(=N)N)C(=O)NCCCC[C@H](NC(=O)[C@H](CCCNC(=N)N)NC(=O)[C@H](Cc1c[nH]c2ccccc12)NC(=O)[C@@H](N)CCCNC(=N)N)C(=O)NCCC(N)=O [Dendrimer 2D-04, reference compound] (H-RWRK([Arg-Trp-Arg])[βAla]-NH2) on fresh sheep RBC? 3428

Give HD50 Hemolysis (fresh sheep RBC) of the following compound: CC(C)(C)c1cc(C(C)(C)C)c2[nH]c(C(C)(C)C)c(C[C@H](N)C(=O)N[C@@H](CCCNC(=N)N)C(=O)NCCCC[C@H](NC(=O)[C@H](CCCCNC(=O)[C@H](CCCNC(=N)N)NC(=O)[C@@H](N)Cc3c[nH]c4ccccc34)NC(=O)[C@H](CCCNC(=N)N)NC(=O)[C@@H](N)Cc3c[nH]c4ccccc34)C(=O)NCCC(N)=O)c2c1 [Dendrimer 3D-13] (H-WRK([Arg-Trp])K([Arg-Trp(2,5,7-tBu3)])[βAla]-NH2) 270

Which HD50 Hemolysis is reported with fresh sheep RBC for this entry: CC(C)(C)c1cc(C(C)(C)C)c2[nH]c(C(C)(C)C)c(C[C@H](N)C(=O)N[C@@H](CCCNC(=N)N)C(=O)NCCCC[C@H](NC(=O)[C@H](CCCNC(=N)N)NC(=O)[C@@H](N)Cc3c(C(C)(C)C)[nH]c4c(C(C)(C)C)cc(C(C)(C)C)cc34)C(=O)N[C@@H](CCCCNC(=O)[C@H](CCCNC(=N)N)NC(=O)[C@@H](N)Cc3c[nH]c4ccccc34)C(=O)NCCC(N)=O)c2c1 [Dendrimer 3D-23] (H-[Trp(2,5,7-tBu3)]RK([Arg-Trp(2,5,7-tBu3)])K([Arg-Trp])[βAla]-NH2) ? 99
